The values you see were collected from PubChem BioAssay (NCI).

System: SNB-19 CNS
assay_name: NCI tumour cell line growth inhibition, 48 h

>  <compound>
Nc1ccccc1C(=O)/C=C/c1c(O)ccc2ccccc12

>  <TGI>
> 100 µM

$$$$
>  <compound>
CNc1ncnc2c1cnn2COCC(O)CO (stereo not given)

>  <TGI>
> 100 µM

$$$$
>  <compound>
COc1nc2ncc([C@@H](OC(C)=O)[C@@H](COC(C)=O)OC(C)=O)nc2c(=O)[nH]1

>  <TGI>
> 100 µM

$$$$
>  <compound>
CC(C)c1[nH]nc2c1N=C(c1ccccc1Cl)c1cc([N+](=O)[O-])ccc1N2

>  <TGI>
> 25 µM

$$$$
>  <compound>
O=C(Nc1cc(Nc2ncccc2-c2ncnc3nc[nH]c23)ccc1F)c1cc(C(F)(F)F)cc(C(F)(F)F)c1

>  <TGI>
> 10 µM

$$$$

====

Test system: UACC-257 melanoma
assay_name: NCI tumour cell line growth inhibition, 48 h

>  <compound>
CCN(CC)CCCCCCNc1cccc2cc(Br)cnc12

>  <tested_on>
UACC-257 melanoma

>  <TGI>
9.36 µM

$$$$
>  <compound>
O=[N+]([O-])c1cccc(C2=NOC(C3CCCCC3)C2)c1 (configuration not stated)

>  <tested_on>
UACC-257 melanoma

>  <TGI>
> 100 µM

$$$$
>  <compound>
O=C1CC(C(O)(C(F)(F)F)C(F)(F)Cl)CCC1C(O)(C(F)(F)F)C(F)(F)Cl (configuration not stated)

>  <tested_on>
UACC-257 melanoma

>  <TGI>
> 10 µM

$$$$
>  <compound>
CN(Cc1ccccc1)c1cc(=O)n(C)c(=O)[nH]1

>  <tested_on>
UACC-257 melanoma

>  <TGI>
> 100 µM

$$$$
>  <compound>
Cn1c(=O)nc2n(-c3cc(C(F)(F)F)cc(C(F)(F)F)c3)c3ccccc3nc-2c1=O

>  <tested_on>
UACC-257 melanoma

>  <TGI>
> 100 µM

$$$$
>  <compound>
CC1CC(O)C(=O)C(O[C@@H]2C[C@@H]3CC[C@@H]4[C@H](CC[C@]5(C)C(C6=CC(=O)OC6)CC[C@]45O)[C@@]3(C=O)C[C@H]2O)O1 (some centres not stated)

>  <tested_on>
UACC-257 melanoma

>  <TGI>
0.418 µM

$$$$
>  <compound>
CC[n+]1[b-](C(C)(C)C)n(/N=C/C(C)(C)C)[b-](C(C)(C)C)[n+]1CC

>  <tested_on>
UACC-257 melanoma

>  <TGI>
> 100 µM

$$$$
>  <compound>
COC(=O)C(=O)C(C(C)=O)C(=O)NCc1ccc(OC)c(OC)c1 (configuration not stated)

>  <tested_on>
UACC-257 melanoma

>  <TGI>
> 100 µM

$$$$
>  <compound>
COc1cc2nc(-c3cccs3)oc(=O)c2cc1OC

>  <tested_on>
UACC-257 melanoma

>  <TGI>
> 100 µM

$$$$
>  <compound>
O=C(CNc1c(Cl)cccc1Cl)NC1C=Cc2ccc(S(=O)(=O)Nc3c(Cl)cccc3Cl)cc2C1=O (configuration not stated)

>  <tested_on>
UACC-257 melanoma

>  <TGI>
> 100 µM

$$$$
>  <compound>
COc1ccc(-c2oc(/C=N/NC(N)=S)c([N+](=O)[O-])c2-c2ccc(OC)c(OC)c2)cc1OC

>  <tested_on>
UACC-257 melanoma

>  <TGI>
> 100 µM

$$$$
>  <compound>
CCOC(=O)c1c(-c2ccccc2)c(-c2ccccc2)cn1C

>  <tested_on>
UACC-257 melanoma

>  <TGI>
> 10 µM

$$$$
>  <compound>
N=C(N)c1ccc(-c2ccc(-c3cccs3)s2)cc1

>  <tested_on>
UACC-257 melanoma

>  <TGI>
3.15 µM

$$$$
>  <compound>
Nc1cc2c(cc1Br)[nH]c(=O)c1ccccc12

>  <tested_on>
UACC-257 melanoma

>  <TGI>
17.1 µM

$$$$
>  <compound>
O=C(N/C(=C\c1ccc([N+](=O)[O-])cc1)c1nc2ccccc2[nH]1)c1ccccc1

>  <tested_on>
UACC-257 melanoma

>  <TGI>
> 100 µM

$$$$
>  <compound>
O=C(c1ccco1)c1c(C(F)(F)F)n([O-])c2ccc(C(F)(F)F)cc2[n+]1=O

>  <tested_on>
UACC-257 melanoma

>  <TGI>
3.06 µM

$$$$
>  <compound>
Clc1ccc(CSCCc2ccncc2)cc1Cl

>  <tested_on>
UACC-257 melanoma

>  <TGI>
> 100 µM

$$$$
>  <compound>
N/C(=N\S(=O)(=O)c1c(C(F)(F)F)cccc1C(F)(F)F)Nc1ccc(Cl)cc1

>  <tested_on>
UACC-257 melanoma

>  <TGI>
47.7 µM

$$$$
>  <compound>
COc1cc2cc(Oc3ccc(NC(=O)c4cc(C(F)(F)F)cc(C(F)(F)F)c4)cc3)c(C)nc2cc1OC

>  <tested_on>
UACC-257 melanoma

>  <TGI>
> 50 µM

$$$$
>  <compound>
COc1ccc(-c2ccc3c(N4CCOC[C@@H]4C)nc(N4CCOC[C@@H]4C)nc3n2)cc1CO

>  <tested_on>
UACC-257 melanoma

>  <TGI>
0.0285 µM

$$$$
>  <compound>
O=C(Nc1ccccc1F)c1cc2ccc(O)cc2oc1=Nc1ccccc1F

>  <tested_on>
UACC-257 melanoma

>  <TGI>
10.1 µM

$$$$
>  <compound>
CC(C(=O)c1ccc(Cl)cc1)/C(=N/NC(=O)NN)C(=O)Nc1cccc(C(F)(F)F)c1 (configuration not stated)

>  <tested_on>
UACC-257 melanoma

>  <TGI>
> 100 µM

$$$$
>  <compound>
Cc1ccc(CC[P+](=O)CCc2ccc(C)nc2)cn1

>  <tested_on>
UACC-257 melanoma

>  <TGI>
> 100 µM

$$$$
>  <compound>
Cc1cc2c(c(C(N)=O)c1C)-c1ccccc1C2=O

>  <tested_on>
UACC-257 melanoma

>  <TGI>
> 100 µM

$$$$
>  <compound>
O=C(O)c1cc(-c2ccc3c(O)c(O)ccc3c2)ccc1O

>  <tested_on>
UACC-257 melanoma

>  <TGI>
> 75 µM

$$$$
>  <compound>
NCCCN1CCN(CCCNc2ccc3nnn4c5ccccc5c(=O)c2c34)CC1

>  <tested_on>
UACC-257 melanoma

>  <TGI>
> 100 µM

$$$$
>  <compound>
CC(=O)Oc1cc(C(F)(F)F)ccc1C(=O)OC1(C)OC(=O)c2ccc(C(F)(F)F)cc2O1 (configuration not stated)

>  <tested_on>
UACC-257 melanoma

>  <TGI>
> 100 µM

$$$$
>  <compound>
CCOP(=O)(OCC)C(C(=O)OC)C(=O)C(=O)Nc1ccc(Cl)cc1Cl (configuration not stated)

>  <tested_on>
UACC-257 melanoma

>  <TGI>
> 100 µM

$$$$
>  <compound>
CC(=O)O/N=C/c1c2ccccc2cc2ccccc12

>  <tested_on>
UACC-257 melanoma

>  <TGI>
> 100 µM

$$$$
>  <compound>
COc1cc(/C=C2\[C@H]3c4c(c(OC)c(C)c(OC)c4OC)CC(C(=O)N2Cc2ccccc2)N3C)c(OC)c(C)c1OC

>  <tested_on>
UACC-257 melanoma

>  <TGI>
39.6 µM

$$$$
>  <compound>
COc1cc2c(cc1O)CCN[C@]21CS[C@@H]2c3c(OC(C)=O)c(C)c4c(c3[C@H](COC1=O)N1[C@@H]2[C@H]2c3c(cc(C)c(OC)c3O)C[C@@H]([C@@H]1O)N2C)OCO4

>  <tested_on>
UACC-257 melanoma

>  <TGI>
0.00557 µM

$$$$
>  <compound>
COC(=O)c1cc2c(o1)-c1nccc3c1c(nc1ccccc13)C2=O

>  <tested_on>
UACC-257 melanoma

>  <TGI>
15.3 µM

$$$$
>  <compound>
C/C1=C\CC[C@@]2(C)O[C@@H]2C[C@@H](C2(C)CO2)CC/C(C)=C/CC1 (some centres not stated)

>  <tested_on>
UACC-257 melanoma

>  <TGI>
> 100 µM

$$$$
>  <compound>
CC(C)=C1CCC(CN(C)C)C1=O (configuration not stated)

>  <tested_on>
UACC-257 melanoma

>  <TGI>
31.6 µM

$$$$
>  <compound>
N[C@H](CCC(=O)N[C@@H](Cc1c[nH]c2ccccc12)C(=O)O)C(=O)O

>  <tested_on>
UACC-257 melanoma

>  <TGI>
> 100 µM

$$$$
>  <compound>
Cc1cccc(C2=C/C(=C(\SS/C(C(=O)c3ccc(OCC(=O)O)c(Cl)c3Cl)=C3\C=C(c4cccc(C)c4)SS3)C(=O)c3ccc(OCC(=O)O)c(Cl)c3Cl)SS2)c1

>  <tested_on>
UACC-257 melanoma

>  <TGI>
> 77.3 µM

$$$$
>  <compound>
COc1cc(/C=C\c2cc(OC)c(OC)c(OC)c2)cc(N/C=C\C(=O)c2c[nH]c3ccccc23)c1OC

>  <tested_on>
UACC-257 melanoma

>  <TGI>
10.8 µM

$$$$
